Tested on: HPB-ALL
Experiment: Cytotoxicity to neoplastic cells in tissue culture
Assay type: cell-based
Conditions: HPB-ALL (TdT-positive), in the presence of coformycin; read-out: cytotoxic IC50
pIC50: −log10 of the molar value.
Quantity Name: pIC50

Retrieve pIC50 measured for Nc1ncnc2c1ncn2[C@@H]1O[C@H](CO)C[C@H]1O and print it.
> 6.30

----------
Field: MIC. Provide a value for each of the compounds that follow.
System: C. neoformans
Assay: MIC of 3'-deoxynucleosides in cell cultures (microtiter plates, 24 hours)
Assay type: cell-based
Conditions: Cryptococcus neoformans; C. neoformans, 24 hours; read-out: MIC

Retrieve MIC measured for Nc1ncnc2c1ncn2[C@@H]1O[C@H](CO)C[C@H]1O and print it.
20 µM

Retrieve MIC measured for Nc1nc2c(ncn2[C@@H]2O[C@H](CO)C[C@H]2O)c(=O)[nH]1 and print it.
> 20 µM

Retrieve MIC measured for Nc1ccn([C@@H]2O[C@H](CO)C[C@H]2O)c(=O)n1 and print it.
> 20 µM

Retrieve MIC measured for O=c1ccn([C@@H]2O[C@H](CO)C[C@H]2O)c(=O)[nH]1 and print it.
> 20 µM

----------
Tested on: NALM-6
Assay: Cytotoxicity to neoplastic cells in tissue culture
Type: cell-based
Details: NALM-6 (TdT-positive), in the presence of coformycin; read-out: cytotoxic IC50
Quantity Name: IC50

Retrieve IC50 measured for Nc1ncnc2c1ncn2[C@@H]1O[C@H](CO)C[C@H]1O and print it.
< 500 nM

----------
Tested on: CEM
Assay: Cytotoxicity to neoplastic cells in tissue culture
Type: cell-based
Conditions: CEM (TdT-positive), in the presence of coformycin; read-out: cytotoxic IC50
pIC50: −log10 of the molar value.
Quantity Name: pIC50

Consider the compound Nc1ncnc2c1ncn2[C@@H]1O[C@H](CO)C[C@H]1O tested on CEM; state its pIC50.
> 6.30

----------
System: MOLT-4
Experiment: Cytotoxicity to neoplastic cells in tissue culture
Type: cell-based
Details: MOLT-4 (TdT-positive), in the presence of coformycin; read-out: cytotoxic IC50
Quantity Name: IC50

Retrieve IC50 measured for Nc1ncnc2c1ncn2[C@@H]1O[C@H](CO)C[C@H]1O and print it.
< 500 nM

----------
Tested on: 8402 cells
Test: Cytotoxicity to neoplastic cells in tissue culture
Assay type: cell-based
Conditions: 8402 (TdT-positive), in the presence of coformycin; read-out: cytotoxic IC50
Quantity Name: IC50

Retrieve IC50 measured for Nc1ncnc2c1ncn2[C@@H]1O[C@H](CO)C[C@H]1O and print it.
< 500 nM

Every entry's value here was drawn from patent US5679648A.
